Reported GI50 by item:
Test system: M14 melanoma
Assay: NCI tumour cell line growth inhibition, 48 h

| Given smiles | Test target | GI50 |
| --- | --- | --- |
| COc1cc(C(=O)/C=C/c2ccc(OCCCCCC[P+](c3ccccc3)(c3ccccc3)c3ccccc3)cc2)cc(OC)c1OC | M14 melanoma | 0.971 µM |
| Cc1cccc2c(C(=O)O[C@H](C(N)=O)[C@]3(C)CO3)cccc12 | M14 melanoma | 0.938 µM |
| Cn1ncc2c(Sc3ccc(Cl)cc3)ncnc21 | M14 melanoma | 93.5 µM |

Print M14 melanoma GI50 for Cc1cc(-c2ncc(-c3cccnc3)cc2/C=C/c2ccccc2)cnc1-c1cccnc1 .
4.24 µM

Print M14 melanoma GI50 for COc1ccc2c(c1)C(=O)c1c-2n(CCCCl)c(=O)c2cc(OC)c(OC)cc12 .
6.24 µM
